# Test system: SW1271
# assay_summary: Resazurin viability, 5 days
# Format: cell-based, human
# recorded_conditions: Homo sapiens, 120 h, SW1271, C, Small cell lung carcinoma
value_kind: EC50 (µM)
Give bare numbers, in µM.

Query :: I am curious: what EC50 value has been reported for O=C(Nc1ccc(Cl)c(Cl)c1)N1CCC(n2c(=O)[nH]c3c(-c4ccc(CO)nc4)cccc32)CC1 ?
Result :: 24.6

====

# Test system: MEF Ogg1(-/-)
# assay_summary: Resazurin viability, 5 days
# Assay type: cell-based
# recorded_conditions: 120 h, N, Non-transformed mouse embryonic fibroblast
Give pEC50 for every item shown.
Numbers only, as −log10 of the molar value.

{"smiles_input": "O=C(Nc1ccc(Cl)c(Cl)c1)N1CCC(n2c(=O)[nH]c3c(-c4ccc(CO)nc4)cccc32)CC1", "value_kind": "pEC50", "data_value": 4.34}

Now, please, on to the next compound.
Query :: Report pEC50 for Cc1cc(NC(=O)N2CCC(n3c(=O)[nH]c4c(Br)cccc43)CC2)ccc1I tested on MEF Ogg1(-/-).
Result :: 4.46

====

# System: HCT116+Chr3
# assay_summary: Resazurin viability, 5 days
# Assay type: cell-based, human
# recorded_conditions: HCT116+Chr3, C, Colorectal carcinoma with WT Chr3
value_kind: pEC50
Numbers only, as −log10 of the molar value.

Query :: I am curious: what pEC50 value has been reported for O=C(Nc1ccc(I)cc1)N1CCC(n2c(=O)[nH]c3c(Br)cccc32)CC1 [TH5487] ?
Result :: 4.69

====

# Test system: Rec1
# assay_summary: Resazurin viability, 5 days
# Assay type: cell-based, human
# recorded_conditions: Rec1, C, B cell non-Hodgkin's lymphoma
value_kind: pEC50
Numbers only, as −log10 of the molar value.

Query :: I am curious: what pEC50 value has been reported for O=C(Nc1ccc(I)cc1)N1CCC(n2c(=O)[nH]c3c(Br)cccc32)CC1 [TH5487] ?
Result :: 4.86

====

# Tested on: U2OS
# assay_summary: Resazurin viability, 5 days
# Format: cell-based, human
# recorded_conditions: C, Osteosarcoma
value_kind: pEC50
Give bare numbers, as −log10 of the molar value.

Query :: I am curious: what pEC50 value has been reported for O=C(Nc1ccc(I)cc1)N1CCC(n2c(=O)[nH]c3c(Br)cccc32)CC1 ?
Result :: 4.71

====

# System: THP1
# assay_summary: Resazurin viability, 5 days
# Format: cell-based, human
# recorded_conditions: Homo sapiens, THP-1, 120 h, THP1, C, Acute monocytic leukemia
value_kind: EC50 (µM)
Numbers only, in µM.

Query :: I am curious: what EC50 value has been reported for O=C(Nc1ccc(Cl)c(Cl)c1)N1CCC(n2c(=O)[nH]c3c(-c4ccc(CO)nc4)cccc32)CC1 ?
Result :: 19.2

====

# Tested on: THP1
# assay_summary: Resazurin viability, 5 days
# Format: cell-based, human
# recorded_conditions: THP1, C, Acute monocytic leukemia
value_kind: pEC50
Give bare numbers, as −log10 of the molar value.

Query :: I am curious: what pEC50 value has been reported for O=C(Nc1ccc(I)cc1)N1CCC(n2c(=O)[nH]c3c(Br)cccc32)CC1 ?
Result :: 4.75

====

# Tested on: RFX393
# assay_summary: Resazurin viability, 5 days
# Format: cell-based, human
# recorded_conditions: RFX393, C, Kidney carcinoma
value_kind: pEC50
One number for each entry, as −log10 of the molar value.

Query :: I am curious: what pEC50 value has been reported for O=C(Nc1ccc(I)cc1)N1CCC(n2c(=O)[nH]c3c(Br)cccc32)CC1 ?
Result :: 4.71

====

# Test system: SaOS2
# assay_summary: Resazurin viability, 5 days
# Assay type: cell-based, human
# recorded_conditions: SaOS2, C, Osteosarcoma
value_kind: pEC50
One number for each entry, as −log10 of the molar value.

Query :: I am curious: what pEC50 value has been reported for O=C(Nc1ccc(I)cc1)N1CCC(n2c(=O)[nH]c3c(Br)cccc32)CC1 [TH5487] ?
Result :: 4.67

====

# Test system: MOLT4
# assay_summary: Resazurin viability, 5 days
# Format: cell-based, human
# recorded_conditions: Homo sapiens, MOLT-4, 120 h, MOLT4, C, T-cell acute lymphoblastic leukemia
value_kind: pEC50
Answers are plain numbers, as −log10 of the molar value.

{"smiles_input": "Cc1cc(NC(=O)N2CCC(n3c(=O)[nH]c4c(Br)cccc43)CC2)ccc1I", "pEC50": 4.76}

Now, please, on to the next molecule.
Query :: I am curious: what pEC50 value has been reported for O=C(Nc1ccc(Cl)c(Cl)c1)N1CCC(n2c(=O)[nH]c3c(-c4ccc(CO)nc4)cccc32)CC1 ?
Result :: 4.90

====

# System: Hec59+Chr2
# assay_summary: Resazurin viability, 5 days
# Type: cell-based, human
# recorded_conditions: Homo sapiens, 120 h, Hec59+Chr2, C, Endometrioid adenocarcinoma with WT Chr2
value_kind: pEC50
Answers are plain numbers, as −log10 of the molar value.

Query :: I am curious: what pEC50 value has been reported for O=C(Nc1ccc(Cl)c(Cl)c1)N1CCC(n2c(=O)[nH]c3c(-c4ccc(CO)nc4)cccc32)CC1 [TH5796] ?
Result :: 4.76

====

# System: PC3
# assay_summary: Resazurin viability, 5 days
# Type: cell-based, human
# recorded_conditions: Homo sapiens, PC-3, 120 h, PC3, C, Prostate adenocarcinoma
value_kind: pEC50
Answers are plain numbers, as −log10 of the molar value.

{"molecule": "Cc1cc(NC(=O)N2CCC(n3c(=O)[nH]c4c(Br)cccc43)CC2)ccc1I [TH6943]", "pEC50": 4.54}

Query :: I am curious: what pEC50 value has been reported for O=C(Nc1ccc(Cl)c(Cl)c1)N1CCC(n2c(=O)[nH]c3c(-c4ccc(CO)nc4)cccc32)CC1 [TH5796] ?
Result :: 4.71

====

# System: CCD841
# assay_summary: Resazurin viability, 5 days
# Format: cell-based, human
# recorded_conditions: Homo sapiens, CCD-841, 120 h, CCD841, N, Non-transformed fibroblast
value_kind: EC50 (µM)
Answers are plain numbers, in µM.

{"molecule": "O=C(Nc1ccc(Cl)c(Cl)c1)N1CCC(n2c(=O)[nH]c3c(-c4ccc(CO)nc4)cccc32)CC1 [TH5796]", "EC50 [µM]": 39.7}

Now, please, on to the next molecule.
Query :: I am curious: what EC50 value has been reported for Cc1cc(NC(=O)N2CCC(n3c(=O)[nH]c4c(Br)cccc43)CC2)ccc1I [TH6943] ?
Result :: 54.2

====

Give EC50 for every item shown.
# System: ACHN
# assay_summary: Resazurin viability, 5 days
# Type: cell-based, human
# recorded_conditions: Homo sapiens, 120 h, C, Kidney adenocarcinoma
Give bare numbers, in µM.

List reported EC50 for each of these compounds:
1. Cc1cc(NC(=O)N2CCC(n3c(=O)[nH]c4c(Br)cccc43)CC2)ccc1I [TH6943]
2. O=C(Nc1ccc(Cl)c(Cl)c1)N1CCC(n2c(=O)[nH]c3c(-c4ccc(CO)nc4)cccc32)CC1 [TH5796]

Result ::
[2.8, 8.5]

====

# Test system: Hematological cancer cell lines
# assay_summary: Resazurin viability, cell line panel
# Type: cell-based
# recorded_conditions: read-out: EC50, average over cell lines
value_kind: EC50 (µM)
Numbers only, in µM.

Query :: I am curious: what EC50 value has been reported for O=C(Nc1ccc(I)cc1)N1CCC(n2c(=O)[nH]c3c(Br)cccc32)CC1 [TH5487] ?
Result :: 14.7

====

# Test system: 786-0
# assay_summary: Resazurin viability, 5 days
# Assay type: cell-based, human
# recorded_conditions: Homo sapiens, 120 h, 786-0, C, Kidney adenocarcinoma
value_kind: EC50 (µM)
Answers are plain numbers, in µM.

{"smiles_input": "O=C(Nc1ccc(Cl)c(Cl)c1)N1CCC(n2c(=O)[nH]c3c(-c4ccc(CO)nc4)cccc32)CC1", "value_kind": "EC50", "data_value": 15.2}

Now, please, on to the next compound.
Query :: Report EC50 for Cc1cc(NC(=O)N2CCC(n3c(=O)[nH]c4c(Br)cccc43)CC2)ccc1I tested on 786-0.
Result :: 33
